Measured mortality at 20 ppm, listed per entry.
# Test system: Haemonchus contortus
# measurement-notes: Haemonchus contortus-Test (HAEMCO), larval mortality
# particulars: 120 h, read-out: activity (larval mortality)
measurement-label: mortality at 20 ppm

1. O=C(NCC(F)(F)c1ncc(-c2ccc(Cl)nc2Cl)cc1Cl)c1ccccc1C(F)(F)F ... 80%
2. O=C(NCC(F)(F)c1ncc(-c2ccc(OCC(F)(F)F)nc2)cc1Cl)c1ccccc1C(F)(F)F ... 100%
3. O=C(NCCc1ncc(-n2cc(C(F)(F)F)cn2)cc1Cl)c1ccccc1C(F)(F)F ... 100%
4. O=C(NCC(F)(F)c1ncc(-c2cc(Cl)nc(Cl)c2)cc1Cl)c1ccccc1C(F)(F)F ... 100%
5. CC(C)Oc1ccc(-c2cnc(C(F)(F)CNC(=O)c3ccccc3C(F)(F)F)c(Cl)c2)cn1 ... 90%
6. O=C(NCC(F)(F)c1ncc(-c2ccnc(F)c2)cc1Cl)c1ccccc1C(F)(F)F ... 100%
7. O=C(NCC(F)(F)c1ncc(-c2ccnc(Cl)c2)cc1Cl)c1ccccc1C(F)(F)F ... 100%
8. O=C(NCC(F)(F)c1ncc(-c2cccnc2Cl)cc1Cl)c1ccccc1C(F)(F)F ... 100%
